Target: Muscarinic acetylcholine receptor M4 (Homo sapiens)
Sequence (P08173 whole entry): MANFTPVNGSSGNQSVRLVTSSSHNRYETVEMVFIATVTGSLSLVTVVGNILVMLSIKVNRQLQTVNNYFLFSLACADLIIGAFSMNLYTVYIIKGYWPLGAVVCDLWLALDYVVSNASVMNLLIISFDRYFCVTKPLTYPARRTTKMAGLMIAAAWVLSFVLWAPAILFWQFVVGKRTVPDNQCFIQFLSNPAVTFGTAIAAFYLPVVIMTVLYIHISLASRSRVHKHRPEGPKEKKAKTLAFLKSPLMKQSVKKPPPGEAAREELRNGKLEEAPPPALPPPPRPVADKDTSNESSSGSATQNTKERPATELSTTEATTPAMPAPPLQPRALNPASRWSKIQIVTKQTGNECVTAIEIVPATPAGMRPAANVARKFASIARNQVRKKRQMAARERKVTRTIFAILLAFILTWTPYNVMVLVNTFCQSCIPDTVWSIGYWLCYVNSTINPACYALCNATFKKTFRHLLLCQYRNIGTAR
Test: Positive allosteric modulation of human muscarinic M4 receptor expressed in CHO Flp-In cells assessed as stimulation of acetylcholine-induced ERK1/2 phosphorylation incubated under green light condition by fluorescence assay
Type: cell-based
Details: read-out: EC50
Property Label: EC50 (nM)
Number in nM, nothing else.

`COc1ccc(CNC(=O)c2sc3nc(C)cc(C)c3c2N)c(F)c1` has a reported EC50 of 350

`Cc1cc(C)c2c(N)c(C(=O)NCc3cc(F)c(F)cc3F)sc2n1` has a reported EC50 of 580

`Cc1cc(C)c2c(N)c(C(=O)NCc3cc(F)cc(F)c3F)sc2n1` has a reported EC50 of 140

`Cc1cc(C)c2c(N)c(C(=O)NCc3cc(F)ccc3F)sc2n1` has a reported EC50 of 130

`COc1ccc(CNC(=O)c2sc3nc(C)cc(C)c3c2N)cc1F` has a reported EC50 of 100

`Cc1cc(C)c2c(N)c(C(=O)NCc3cccc(F)c3F)sc2n1` has a reported EC50 of 110

###

Molecular target: Muscarinic acetylcholine receptor M4 (Homo sapiens)
Sequence (whole entry): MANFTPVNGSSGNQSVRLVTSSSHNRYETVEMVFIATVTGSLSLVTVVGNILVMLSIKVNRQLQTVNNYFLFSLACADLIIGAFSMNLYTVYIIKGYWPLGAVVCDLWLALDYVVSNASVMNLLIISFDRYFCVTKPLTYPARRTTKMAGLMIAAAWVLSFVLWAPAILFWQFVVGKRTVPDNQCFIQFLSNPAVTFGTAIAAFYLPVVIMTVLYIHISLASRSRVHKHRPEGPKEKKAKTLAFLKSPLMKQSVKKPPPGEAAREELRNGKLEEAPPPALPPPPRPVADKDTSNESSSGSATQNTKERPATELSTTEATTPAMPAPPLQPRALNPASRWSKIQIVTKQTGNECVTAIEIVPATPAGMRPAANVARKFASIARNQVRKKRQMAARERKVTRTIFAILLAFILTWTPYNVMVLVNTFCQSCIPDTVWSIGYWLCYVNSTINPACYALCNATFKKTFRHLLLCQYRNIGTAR
Assay: Binding affinity to human muscarinic M4 receptor expressed in CHO Flp-In cells
Format: cell-based
pKb: recorded values
Please respond with just the number, no unit label.

Cc1cc(C)c2c(N)c(C(=O)NCc3cccc(F)c3F)sc2n1 :: 5.76
Cc1cc(C)c2c(N)c(C(=O)NCc3cc(F)cc(F)c3F)sc2n1 :: 5.89
COc1ccc(CNC(=O)c2sc3nc(C)cc(C)c3c2N)c(F)c1 :: 5.74
COc1ccc(CNC(=O)c2sc3nc(C)cc(C)c3c2N)cc1F :: 5.59
Cc1cc(C)c2c(N)c(C(=O)NCc3cccc(F)c3)sc2n1 :: 5.21
Cc1cc(C)c2c(N)c(C(=O)NCc3cc(F)c(F)cc3F)sc2n1 :: 5.63
COc1ccc(CNC(=O)c2sc3nc(C)cc(C)c3c2N)c(F)c1F :: 5.73
COc1cccc(CNC(=O)c2sc3nc(C)cc(C)c3c2N)c1 :: 4.95

`Cc1cc(C)c2c(N)c(C(=O)NCc3cc(F)ccc3F)sc2n1` has a reported pKb of 5.77

`Cc1cc(C)c2c(N)c(C(=O)NCc3ccccc3F)sc2n1` has a reported pKb of 5.93

`Cc1cc(C)c2c(N)c(C(=O)NCc3ccc(F)cc3)sc2n1` has a reported pKb of 5.6
